# Tested on: KM20L2
# METHOD_SUMMARY: Inhibition of human cancer cell line KM20L2 (Colon)
# Type: cell-based
# LC-50 annotations
ENDPOINT_LABEL: LC-50

- SUBSTANCE: "Dov-Val-Dil-Dap-Ile-OCH3 [pentapeptide 3d]"
  SYSTEM: "KM20L2"
  ENDPOINT_LABEL: "LC-50"
  RESULT: "> 1 µg/mL"
- SUBSTANCE: "Dov-Val-Dil-Dap-Met-OCH3 [pentapeptide 3e]"
  SYSTEM: "KM20L2"
  ENDPOINT_LABEL: "LC-50"
  RESULT: "> 1 µg/mL"
- SUBSTANCE: "Dov-Val-Dil-Dap-Phe-NH2 [pentapeptide 3b]"
  SYSTEM: "KM20L2"
  ENDPOINT_LABEL: "LC-50"
  RESULT: "0.083 µg/mL"
- SUBSTANCE: "Dov-Val-Dil-Dap-Phe-OCH3 [pentapeptide 3a]"
  SYSTEM: "KM20L2"
  ENDPOINT_LABEL: "LC-50"
  RESULT: "> 1 µg/mL"
- SUBSTANCE: "Dov-Val-Dil-Dap-Pro-OCH3 [pentapeptide 3c]"
  SYSTEM: "KM20L2"
  ENDPOINT_LABEL: "LC-50"
  RESULT: "> 1 µg/mL"

###

# Test system: OVCAR-3
# METHOD_SUMMARY: Inhibition of human cancer cell line OVCAR-3 (Ovarian)
# Format: cell-based
# From the text: Current research in the control of cancer in the United States is coordinated by the National Cancer Institute (NCI). To determine whether a substance has anti-cancer properties, the NCI has established a systematic protocol. […] The protocol, and the established statistical means for analyzing the results obtained by the standardized testing are fully described in the literature. […]

- SUBSTANCE: "Dov-Val-Dil-Dap-Ile-OCH3 [pentapeptide 3d]"
  GI-50: "< 0.0001 µg/mL"
- SUBSTANCE: "Dov-Val-Dil-Dap-Met-OCH3 [pentapeptide 3e]"
  GI-50: "< 0.0001 µg/mL"
- SUBSTANCE: "Dov-Val-Dil-Dap-Pro-OCH3 [pentapeptide 3c]"
  GI-50: "< 0.0001 µg/mL"
- SUBSTANCE: "Dov-Val-Dil-Dap-Phe-NH2 [pentapeptide 3b]"
  GI-50: "0.0076 µg/mL"
- SUBSTANCE: "Dov-Val-Dil-Dap-Phe-OCH3 [pentapeptide 3a]"
  GI-50: "< 0.0001 µg/mL"

###

# System: OVCAR-3
# METHOD_SUMMARY: Inhibition of human cancer cell line OVCAR-3 (Ovarian)
# Assay type: cell-based
# TGI annotations

- SUBSTANCE: "Dov-Val-Dil-Dap-Phe-OCH3 [pentapeptide 3a]"
  LIMIT_SIGN: "="
  TGI (ng/mL): 1.1
- SUBSTANCE: "Dov-Val-Dil-Dap-Phe-NH2 [pentapeptide 3b]"
  LIMIT_SIGN: "="
  TGI (ng/mL): 3.7
- SUBSTANCE: "Dov-Val-Dil-Dap-Met-OCH3 [pentapeptide 3e]"
  LIMIT_SIGN: "<"
  TGI (ng/mL): 0.1
- SUBSTANCE: "Dov-Val-Dil-Dap-Pro-OCH3 [pentapeptide 3c]"
  LIMIT_SIGN: "<"
  TGI (ng/mL): 0.1
- SUBSTANCE: "Dov-Val-Dil-Dap-Ile-OCH3 [pentapeptide 3d]"
  LIMIT_SIGN: "<"
  TGI (ng/mL): 0.1

###

# TGI annotations
# System: NCI-H460
# METHOD_SUMMARY: Inhibition of human cancer cell line NCI-H460 (Lung-NSC)
# Assay type: cell-based

- SUBSTANCE: "Dov-Val-Dil-Dap-Phe-OCH3 [pentapeptide 3a]"
  TGI, µg/mL: 0.011
- SUBSTANCE: "Dov-Val-Dil-Dap-Ile-OCH3 [pentapeptide 3d]"
  TGI, µg/mL: 0.00088
- SUBSTANCE: "Dov-Val-Dil-Dap-Pro-OCH3 [pentapeptide 3c]"
  TGI, µg/mL: 0.0013
- SUBSTANCE: "Dov-Val-Dil-Dap-Phe-NH2 [pentapeptide 3b]"
  TGI, µg/mL: 0.011
- SUBSTANCE: "Dov-Val-Dil-Dap-Met-OCH3 [pentapeptide 3e]"
  TGI, µg/mL: 0.13

###

# Tested on: SK-MEL-3
# METHOD_SUMMARY: Inhibition of human cancer cell line SK-MEL-3 (Melanoma)
# Assay type: cell-based
# From the text: Current research in the control of cancer in the United States is coordinated by the National Cancer Institute (NCI). To determine whether a substance has anti-cancer properties, the NCI has established a systematic protocol. […] The protocol, and the established statistical means for analyzing the results obtained by the standardized testing are fully described in the literature. […]
# TGI annotations

- SUBSTANCE: "Dov-Val-Dil-Dap-Phe-OCH3 [pentapeptide 3a]"
  READOUT_UNIT: "ng/mL"
  LIMIT_SIGN: "="
  TGI: 0.68
- SUBSTANCE: "Dov-Val-Dil-Dap-Pro-OCH3 [pentapeptide 3c]"
  READOUT_UNIT: "ng/mL"
  LIMIT_SIGN: "<"
  TGI: 0.1
- SUBSTANCE: "Dov-Val-Dil-Dap-Ile-OCH3 [pentapeptide 3d]"
  READOUT_UNIT: "ng/mL"
  LIMIT_SIGN: "<"
  TGI: 0.1
- SUBSTANCE: "Dov-Val-Dil-Dap-Met-OCH3 [pentapeptide 3e]"
  READOUT_UNIT: "ng/mL"
  LIMIT_SIGN: ">"
  TGI: 1000
- SUBSTANCE: "Dov-Val-Dil-Dap-Phe-NH2 [pentapeptide 3b]"
  READOUT_UNIT: "ng/mL"
  LIMIT_SIGN: "="
  TGI: 12
